Attribution: paper PMC10287555

# PROTOCOL_DETAILS: Plasma pharmacokinetics, cycle 1 day 1 (LC–MS/MS, non-compartmental analysis)
# Assay type: in vivo, human
# CONDITION_LABEL: human, plasma, oral; Dose 10 mg, Tau 24 hr, cycle 1 day 1; read-out: Half-life, geometric mean (converted)
REPORTED_ENDPOINT: half-life (min)
Answers are plain numbers, in min.

Give the reported value of half-life for this record: `C[C@@H]1COCCN1c1cc([C@]2(O)C[C@H]3CC[C@@H](C2)O3)c2cnn(-c3cc[nH]n3)c2n1`
510

====

# PROTOCOL_DETAILS: Plasma pharmacokinetics, cycle 1 day 1 (LC–MS/MS, non-compartmental analysis)
# Assay type: in vivo, human
# CONDITION_LABEL: human, plasma, oral, 80 mg, Tau 12 hr, cycle 1 day 1; read-out: AUC0-t, geometric mean
REPORTED_ENDPOINT: AUC(0-t) (ng·h/mL)
Numbers only, in ng·h/mL.

Give the reported value of AUC(0-t) for this record: `C[C@@H]1COCCN1c1cc([C@]2(O)C[C@H]3CC[C@@H](C2)O3)c2cnn(-c3cc[nH]n3)c2n1`
42100
